Data provenance: paper PMC11574364

- Tested system: T1, HIS-QKI (RNA-binding domain array) (human, UniProt Q96PU8 1-341)
- T1 sequence: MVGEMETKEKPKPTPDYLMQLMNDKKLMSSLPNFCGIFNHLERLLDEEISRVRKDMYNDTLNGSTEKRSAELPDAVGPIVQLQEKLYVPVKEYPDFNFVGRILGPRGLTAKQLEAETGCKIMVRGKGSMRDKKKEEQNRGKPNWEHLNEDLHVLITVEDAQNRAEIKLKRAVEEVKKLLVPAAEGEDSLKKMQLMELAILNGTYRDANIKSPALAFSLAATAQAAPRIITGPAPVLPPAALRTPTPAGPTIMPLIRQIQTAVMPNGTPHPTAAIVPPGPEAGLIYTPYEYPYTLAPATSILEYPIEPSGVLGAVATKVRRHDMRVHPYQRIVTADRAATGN
- Method description: protein microarray probed with biotinylated miRNA; Domain array: 20 mM Tris-HCl pH 7.4, 200 mM KCl, 0.2 mM EDTA, 0.05% NP40, 2 ug/ul heparin, overnight 4 C. ORF array: PBS pH 7.0 with RNase inhibitor, 100 ng RNA; high values mean tight binding
Measured metric: binding signal

AGAGGUAGUAGGUUGCAUAGUU (ssRNA) [let-7d biotin/Cy3] :: 1210 fluorescence intensity
UGAGGUAGUAGGUUGUAUGGUU (ssRNA) [let-7c biotin/Cy3] :: 1280 fluorescence intensity
UGAGGUAGUAGGUUGUAUAGUU (ssRNA) [let-7a biotin/Cy3] :: 336 fluorescence intensity
UGAGGUAGUAGGUUGUGUGGUU (ssRNA) [let-7b biotin/Cy3] :: 1340 fluorescence intensity
UAGCUUAUCAGACUGAUGUUGA (ssRNA) [miR-21 biotin/Cy3] :: 26.4 fluorescence intensity

**Q:** Which binding signal reading was recorded for the binder CAGUGCAAUGAUGAAAGGGCAU (ssRNA) [miR-130b biotin/Cy3] ?
**A:** 428 fluorescence intensity
